- Test system: EGFR (Homo sapiens, UniProt P00533, L858R/T790M)
- Construct: endogenous in cells; host or cells: H1975
- Sequence (P00533 25-1210 T790M/L858R): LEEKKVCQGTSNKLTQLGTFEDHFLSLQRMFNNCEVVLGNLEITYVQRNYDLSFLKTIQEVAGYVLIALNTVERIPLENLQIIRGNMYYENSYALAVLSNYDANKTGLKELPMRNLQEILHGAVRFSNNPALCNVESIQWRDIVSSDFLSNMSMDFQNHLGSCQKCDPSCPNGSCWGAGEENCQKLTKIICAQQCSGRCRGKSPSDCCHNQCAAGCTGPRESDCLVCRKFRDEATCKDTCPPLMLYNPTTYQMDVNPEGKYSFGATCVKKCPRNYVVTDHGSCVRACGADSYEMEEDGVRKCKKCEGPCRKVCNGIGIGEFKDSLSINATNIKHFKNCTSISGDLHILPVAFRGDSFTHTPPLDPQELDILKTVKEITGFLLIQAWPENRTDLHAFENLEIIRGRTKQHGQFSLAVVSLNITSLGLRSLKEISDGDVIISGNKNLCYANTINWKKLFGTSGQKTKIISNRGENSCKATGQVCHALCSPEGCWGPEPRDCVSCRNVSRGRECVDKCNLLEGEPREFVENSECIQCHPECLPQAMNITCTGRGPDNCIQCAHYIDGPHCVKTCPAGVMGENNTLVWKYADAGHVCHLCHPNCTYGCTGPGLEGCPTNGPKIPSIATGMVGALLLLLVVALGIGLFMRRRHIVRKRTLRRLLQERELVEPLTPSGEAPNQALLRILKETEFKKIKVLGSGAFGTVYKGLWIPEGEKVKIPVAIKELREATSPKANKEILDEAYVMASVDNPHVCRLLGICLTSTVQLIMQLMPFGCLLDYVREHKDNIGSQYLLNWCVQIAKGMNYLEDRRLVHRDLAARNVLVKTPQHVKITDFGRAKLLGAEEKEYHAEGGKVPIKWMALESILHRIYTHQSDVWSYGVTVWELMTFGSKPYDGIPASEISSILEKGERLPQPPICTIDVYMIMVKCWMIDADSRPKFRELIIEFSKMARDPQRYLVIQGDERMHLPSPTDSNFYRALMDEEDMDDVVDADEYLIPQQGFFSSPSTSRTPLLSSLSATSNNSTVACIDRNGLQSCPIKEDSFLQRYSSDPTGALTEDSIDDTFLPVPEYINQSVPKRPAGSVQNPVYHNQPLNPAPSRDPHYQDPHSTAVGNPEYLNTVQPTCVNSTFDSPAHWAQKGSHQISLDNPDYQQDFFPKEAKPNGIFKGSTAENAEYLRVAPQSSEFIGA
- Protocol summary: Cell Degradation 1: EGFR degradation in H1975 cells, HTRF assay
- Type: cell-based
- Test context: 16 h treatment, EGFR degradation by HTRF
Property label: DC50 (nM)

Consider the following illustrative entries.
Molecule: CS(=O)(=O)N1CCc2cccc(Nc3nc(Nc4ccc(N5CCC(N6CCN(C(=O)C7CN(c8ccc9c(c8)C(=O)N(C8CCC(=O)NC8=O)C9=O)C7)CC6)CC5)c(F)c4)ncc3Cl)c21 (centres unmarked)
DC50 [nM]: 2.3
//
Molecule: CS(=O)(=O)N1CCc2cccc(Nc3nc(Nc4ccc(N5CCC(N6CCN(CCc7cc(F)c(C8CCC(=O)NC8=O)c(F)c7)CC6)CC5)c(F)c4)nc4[nH]ccc34)c21 (centres unmarked)
DC50 [nM]: 3.7
//
Molecule: COc1cc(N2CCC(N3CCN(CCC4CCN(c5ccc6c(c5)C(=O)N(C5CCC(=O)NC5=O)C6=O)CC4)CC3)CC2)c(C)cc1Nc1ncc(Br)c(Nc2cccc3c2N(S(C)(=O)=O)CC3)n1 (centres unmarked)
DC50 [nM]: 3.5
//
Molecule: CS(=O)(=O)N1CCc2cccc(Nc3nc(Nc4ccc(N5CCC(N6CCN(CCc7ccc(C8CCC(=O)NC8=O)c(F)c7F)CC6)CC5)c(F)c4)nc4[nH]ccc34)c21 (centres unmarked)
DC50 [nM]: 10.8

[1] CS(=O)(=O)N1CCc2cccc(Nc3nc(Nc4ccc(N5CCC(N6CCN(CC7CN(c8ccc9c(c8)C(=O)N(C8CCC(=O)NC8=O)C9=O)C7)CC6)CC5)c(F)c4)nc4[nH]ccc34)c21 (centres unmarked)
[2] COc1cc(N2CCC(N3CCN(CC4CN(c5ccc6c(c5)CN(C5CCC(=O)NC5=O)C6=O)C4)CC3)CC2)ccc1Nc1ncc(Cl)c(Nc2cccc3c2N(S(C)(=O)=O)CC3)n1 (centres unmarked)
[3] COc1cc(CCN2CCN(C3CCN(c4ccc(Nc5nc(Nc6cccc7c6N(S(C)(=O)=O)CC7)c6cc[nH]c6n5)cc4F)CC3)CC2)ccc1C1CCC(=O)NC1=O (centres unmarked)
[4] CS(=O)(=O)N1CCc2cccc(Nc3nc(Nc4ccc(N5CCC(N6CCN(CCC7CCN(c8ccc9c(c8)C(=O)N(C8CCC(=O)NC8=O)C9=O)CC7)CC6)CC5)c(F)c4)ncc3Cl)c21 (centres unmarked)
[5] CS(=O)(=O)N1CCc2cccc(Nc3nc(Nc4ccc(N5CCC(N6CCN(CCC7CCN(c8ccc(C9CCC(=O)NC9=O)c(F)c8)CC7)CC6)CC5)c(F)c4)nc4[nH]ccc34)c21 (centres unmarked)
Q: Ascending by DC50, please. Output spec: a listing of the labels in the requested order.
Ans: 2, 1, 4, 5, 3
